target: mGlu2 (Rattus norvegicus (Rat)); experiment: mGlu2 GIRK thallium flux assay; details: read-out: mGlu2 PAM Max;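 further: Cell-based assay, rate of fluorescence rise right after thallium plus agonist addition read on a kinetic imaging plate reader, normalized to vehicle and maximal agonist control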
Sequence (P31421 19-872): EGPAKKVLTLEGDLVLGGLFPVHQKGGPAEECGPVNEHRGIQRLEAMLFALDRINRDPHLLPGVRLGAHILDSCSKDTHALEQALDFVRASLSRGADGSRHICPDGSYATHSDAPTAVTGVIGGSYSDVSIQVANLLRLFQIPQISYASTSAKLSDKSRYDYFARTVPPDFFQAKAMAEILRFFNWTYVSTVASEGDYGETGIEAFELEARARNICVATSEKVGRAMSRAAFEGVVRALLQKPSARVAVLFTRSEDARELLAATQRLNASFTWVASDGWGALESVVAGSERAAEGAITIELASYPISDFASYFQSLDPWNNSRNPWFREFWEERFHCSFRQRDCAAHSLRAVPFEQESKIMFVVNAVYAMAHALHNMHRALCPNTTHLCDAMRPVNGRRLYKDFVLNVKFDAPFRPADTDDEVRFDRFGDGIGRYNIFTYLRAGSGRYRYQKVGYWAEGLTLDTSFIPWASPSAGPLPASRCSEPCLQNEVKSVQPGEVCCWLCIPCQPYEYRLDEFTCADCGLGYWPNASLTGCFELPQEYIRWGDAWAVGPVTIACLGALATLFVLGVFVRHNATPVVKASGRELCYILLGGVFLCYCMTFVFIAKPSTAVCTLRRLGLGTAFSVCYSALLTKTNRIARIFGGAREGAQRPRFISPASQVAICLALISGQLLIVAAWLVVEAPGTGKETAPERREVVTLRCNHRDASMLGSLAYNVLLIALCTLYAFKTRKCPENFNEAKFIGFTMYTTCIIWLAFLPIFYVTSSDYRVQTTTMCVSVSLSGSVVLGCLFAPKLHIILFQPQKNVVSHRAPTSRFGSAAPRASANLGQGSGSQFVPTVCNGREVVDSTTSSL
Assay metric: Emax (%)
Give bare numbers, in %.

>>> reported("COc1ccc(C(=O)O)cc1-c1cccc(COc2ccc(C(=O)CC(C)(C)C)c(O)c2C)c1")
89.6
>>> reported("Cc1c(OCc2cccc(-c3ccc(C(=O)O)c(Cl)c3)c2)ccc(C(=O)CC(C)(C)C)c1O")
67
>>> reported("Cc1c(OCc2cccc(-c3cccc(C#N)c3)c2)ccc(C(=O)CC(C)(C)C)c1O")
50.2
>>> reported("Cc1c(OCc2cncc(-c3cccc(C(=O)O)c3)c2)ccc(C(=O)CC(C)(C)C)c1O")
107

Please supply Emax for each of the following items, keeping them in order.
1. COc1ccc(-c2nnn[nH]2)cc1OCCCCOc1ccc(C(=O)CC(C)(C)C)c(O)c1C
2. COc1ccc(C(=O)N2CCNCC2)cc1OCCCCOc1ccc(C(=O)CC(C)(C)C)c(O)c1C
3. Cc1c(OCc2ccc(-c3cccc(C(=O)O)c3)o2)ccc(C(=O)CC(C)(C)C)c1O
4. Cc1c(OCc2cc(-c3cccc(C(=O)O)c3)cs2)ccc(C(=O)CC(C)(C)C)c1O

91.2
67.4
106
102
